- System: upland rice (Oryza sp., var. Tebonnet, RICE)
- methodSummary: Pre-emerge test, crop safety
- Format: in vivo
- measurementContext: pre-emerge, 63 g ai/ha, 14 days after application, rating scale 0-100
Please note: YES applies when phytotoxicity rating RICE is 30 or greater, and NO applies otherwise.

Solved entries (count: 6):
compound: COc1c(Cl)cc(F)c(-n2c(=O)cc(C(F)(F)F)n(C)c2=O)c1SCCO
studyTarget: upland rice (Oryza sp., var. Tebonnet, RICE)
categoryLabel: NO

compound: COc1c(Cl)cc(F)c(-n2c(=O)cc(C(F)(F)F)n(C)c2=O)c1NNC(=O)c1ccc(F)cc1F
studyTarget: upland rice (Oryza sp., var. Tebonnet, RICE)
categoryLabel: YES

compound: COc1c(Cl)cc(F)c(-n2c(=O)cc(C(F)(F)F)n(C)c2=O)c1NNC(=O)c1ccc2ccccc2c1
studyTarget: upland rice (Oryza sp., var. Tebonnet, RICE)
categoryLabel: YES

compound: COc1c(Cl)cc(F)c(-n2c(=O)cc(C(F)(F)F)n(C)c2=O)c1NN=CC1CC1
studyTarget: upland rice (Oryza sp., var. Tebonnet, RICE)
categoryLabel: YES

compound: CCOC(=O)C(Cl)Cc1c(OC)c(Cl)cc(F)c1-n1nc(C(F)(F)F)n(C)c1=O (centres unmarked)
studyTarget: upland rice (Oryza sp., var. Tebonnet, RICE)
categoryLabel: NO

compound: COc1c(Cl)cc(F)c(-n2c(=O)cc(C(F)(F)F)n(C)c2=O)c1NN=CCCSC
studyTarget: upland rice (Oryza sp., var. Tebonnet, RICE)
categoryLabel: YES

Exercise: Please check the record COc1c(Cl)cc(F)c(-n2c(=O)cc(C(F)(F)F)n(C)c2=O)c1CC(C)(Cl)C(=O)OCC1CCCO1 (centres unmarked) and state if its phytotoxicity rating RICE is at or above 30.
Key: YES

====

- Tested on: upland rice (Oryza sp., var. Tebonnet, RICE)
- methodSummary: Post-emerge test, crop safety
- Format: in vivo
- measurementContext: post-emerge, 63 g ai/ha, 14 days after application, rating scale 0-100
Please note: T applies when RICE phytotoxicity rating (crop damage) is 20 or greater, and F applies otherwise.

molecule: COc1c(Cl)cc(F)c(-n2c(=O)cc(C(F)(F)F)n(C)c2=O)c1NC(=O)COc1ccc(F)cc1
categoryLabel: T

Exercise: Please check the record `COc1c(Cl)cc(F)c(-n2c(=O)cc(C(F)(F)F)n(C)c2=O)c1NC(=O)C=Cc1cccc(Cl)c1` and state if its RICE phytotoxicity rating (crop damage) is at or above 20.
Key: T

Exercise: Same question for `COc1c(Cl)cc(F)c(-n2c(=O)cc(C(F)(F)F)n(C)c2=O)c1NC(=O)CSc1ccc2ccccc2c1` please.
Key: F

Exercise: Same question for `COc1c(Cl)cc(F)c(-n2c(=O)cc(C(F)(F)F)n(C)c2=O)c1NC(=O)C(C#N)=Cc1ccccc1` please.
Key: F

Exercise: Same question for CCOC(=O)C(C)Oc1ccc(-n2c(=O)cc(C(F)(F)F)n(C)c2=O)c(NC(=O)c2ccc3ccccc3c2)c1 (stereo not shown) please.
Key: F

Exercise: Same question for `COc1ccc(-n2c(=O)cc(C(F)(F)F)n(C)c2=O)c(NC(=O)c2ccc3ccccc3c2)c1` please.
Key: T

====

Provide the reported Pre-emerge phytotoxicity rating, crop damage RICE of each item.
- System: upland rice (Oryza sp., var. Tebonnet, RICE)
- methodSummary: Pre-emerge test, crop safety
- Assay type: in vivo
- measurementContext: 250 g ai/ha; rating scale 0-100, 14 days after application
- Procedure: A standard greenhouse herbicide activity screening system was used to evaluate the herbicidal efficacy and crop safety of these test compounds. […] At 14 days after application of the test materials, phytotoxicity ratings were recorded. […]
One number for each entry.

molecule: COc1c(Cl)cc(F)c(-n2c(=O)cc(C(F)(F)F)n(C)c2=O)c1CC(Cl)C(=O)OCC(F)(F)C(F)F (stereo not shown) [14-22]
reported: 10

Quick batch: Pre-emerge phytotoxicity rating, crop damage RICE for everything below.
1. COc1c(Cl)cc(F)c(-n2c(=O)cc(C(F)(F)F)n(C)c2=O)c1CC(Cl)C(=O)OCC(F)(F)F (stereo not shown) [14-21]
2. COCCOC(=O)C(Cl)Cc1c(OC)c(Cl)cc(F)c1-n1c(=O)cc(C(F)(F)F)n(C)c1=O (stereo not shown) [14-25]
3. CCOCCOC(=O)C(Cl)Cc1c(OC)c(Cl)cc(F)c1-n1c(=O)cc(C(F)(F)F)n(C)c1=O (stereo not shown) [14-26]

Key:
1: 20; 2: 100; 3: 80

Quick batch: Pre-emerge phytotoxicity rating, crop damage RICE for everything below.
1. C=CCOC(=O)C(C)(Cl)Cc1c(OC)c(Cl)cc(F)c1-n1c(=O)cc(C(F)(F)F)n(C)c1=O (stereo not shown) [14-43]
2. C#CCOC(=O)C(Cl)Cc1c(OC)c(Cl)cc(F)c1-n1c(=O)cc(C(F)(F)F)n(C)c1=O (single isomer, unassigned) [14-19]
3. C=COC(=O)C(C)(Cl)Cc1c(OC)c(Cl)cc(F)c1-n1c(=O)cc(C(F)(F)F)n(C)c1=O (stereo not shown) [14-42]

Key:
1. 40
2. 0
3. 30
